// values below are pKi; system is 5-hydroxytryptamine receptor 3A (Homo sapiens, UniProt P46098)
Sequence (P46098 whole entry): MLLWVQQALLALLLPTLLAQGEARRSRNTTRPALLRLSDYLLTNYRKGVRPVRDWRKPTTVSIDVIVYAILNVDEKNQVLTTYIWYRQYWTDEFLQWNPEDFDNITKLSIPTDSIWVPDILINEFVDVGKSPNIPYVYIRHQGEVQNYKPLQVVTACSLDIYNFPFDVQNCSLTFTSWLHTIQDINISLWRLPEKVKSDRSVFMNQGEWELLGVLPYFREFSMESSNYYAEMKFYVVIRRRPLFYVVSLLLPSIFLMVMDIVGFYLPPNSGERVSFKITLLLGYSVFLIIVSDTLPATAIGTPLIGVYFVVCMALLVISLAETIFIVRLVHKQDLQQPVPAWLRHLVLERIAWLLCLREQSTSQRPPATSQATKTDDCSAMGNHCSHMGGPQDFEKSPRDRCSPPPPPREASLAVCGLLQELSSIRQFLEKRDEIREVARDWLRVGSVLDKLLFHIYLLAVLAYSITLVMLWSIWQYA
pKi is defined as minus the log10 of a concentration measured in mol/L.

Below, each entry is followed by its recorded pKi result.
CN1[C@@H]2CCC[C@H]1C[C@H](NC(=O)c1cccc3oc(C4CC4)nc13)C2 8.08
COc1ccccc1-c1nc2c(C(=O)N[C@@H]3CN4CCC3CC4)cccc2o1 7.33
COc1ccccc1-c1nc2c(C(=O)N[C@@H]3C[C@H]4CCC[C@@H](C3)N4C)cccc2o1 7.83

The record that follows has no pKi shown yet.
Req: Missing value: pKi, 5-hydroxytryptamine receptor 3A (Homo sapiens, UniProt P46098), entry "CNc1nc2c(C(=O)N[C@@H]3CN4CCC3CC4)cccc2o1" . Fill in?
Resp: 7.44
